Test system: Escherichia coli
protocol-notes: Antibacterial activity against extended-spectrum beta-lactamase producing Escherichia coli isolate 209285 after 18 hrs by CLSI broth microdilution method
Format: functional
particulars: isolate 209285, 18 h
parameter: log10 of MIC (log10 of the value in µg/mL)
// stored as log10 of MIC expressed in µg/mL

Prompt: Provide the reported log10 of MIC (system: Escherichia coli) for CC(C)C(O/N=C(\C(=O)N[C@@H]1C(=O)N(S(=O)(=O)O)[C@@H]1COC(=O)CNC(=O)c1cc(=O)c(O)c[nH]1)c1csc(N)n1)c1cc(=O)c(O)cn1O (some centres not stated)
Completion: 1.51

Prompt: Provide the reported log10 of MIC (system: Escherichia coli) for CC(C)C(O/N=C(\C(=O)N[C@@H]1C(=O)N(S(=O)(=O)O)C12CCCC2)c1csc(N)n1)c1cc(=O)c(O)cn1O (some centres not stated)
Completion: -0.30

Prompt: Provide the reported log10 of MIC (system: Escherichia coli) for CC(C)C(O/N=C(\C(=O)N[C@@H]1C(=O)N(S(=O)(=O)O)[C@@H]1CSc1nc(=O)c(O)nn1C)c1csc(N)n1)c1cc(=O)c(O)cn1O (some centres not stated)
Completion: 0.60

Prompt: Provide the reported log10 of MIC (system: Escherichia coli) for CC(C)C(O/N=C(\C(=O)N[C@@H]1C(=O)N(S(=O)(=O)O)[C@@H]1CSc1nc2ccccc2o1)c1csc(N)n1)c1cc(=O)c(O)cn1O (some centres not stated)
Completion: 0.60

Prompt: Provide the reported log10 of MIC (system: Escherichia coli) for CC(C)C(O/N=C(\C(=O)N[C@@H]1C(=O)N(S(=O)(=O)O)[C@@H]1COC(N)=O)c1csc(N)n1)c1cc(=O)c(O)cn1O (some centres not stated)
Completion: -0.30

Prompt: Provide the reported log10 of MIC (system: Escherichia coli) for CC(C)C(O/N=C(\C(=O)N[C@@H]1C(=O)N(S(=O)(=O)O)[C@@H]1CO)c1csc(N)n1)c1cc(=O)c(O)cn1O (some centres not stated)
Completion: 1.81

Prompt: Provide the reported log10 of MIC (system: Escherichia coli) for CC(C)C(O/N=C(\C(=O)NC1C(=O)N(S(=O)(=O)O)C12CCCC2)c1csc(N)n1)c1cc(=O)c(O)cn1O (configuration not stated)
Completion: 0.00

Prompt: Provide the reported log10 of MIC (system: Escherichia coli) for CC(C)C(O/N=C(\C(=O)N[C@@H]1C(=O)N(S(=O)(=O)O)[C@@H]1CN1CCNCC1)c1csc(N)n1)c1cc(=O)c(O)cn1O (some centres not stated)
Completion: 0.30

Prompt: Provide the reported log10 of MIC (system: Escherichia coli) for CC(C)C(O/N=C(\C(=O)N[C@@H]1C(=O)N(S(=O)(=O)O)[C@@H]1COC(=O)c1ccc(O)c(O)c1Cl)c1csc(N)n1)c1cc(=O)c(O)cn1O (some centres not stated)
Completion: 1.51
